ASSAY PROTOCOL: Lipophilicity, log P of the compound
Type: physicochemical
CONDITION DETAILS: octanol/water
PROPERTY MEASURED: logP

Known results for compounds:
O=C(N[C@@H](Cc1coc2ccccc12)B(O)O)[C@H]1CCOC1: 2.1
O=C(N[C@@H](Cc1coc2ccccc12)B(O)O)[C@@H]1CCOC1: 1.85
O=C(N[C@@H](Cc1coc2ccccc12)B(O)O)[C@@H]1CCCO1: 1.9
O=C(N[C@@H](Cc1coc2ccccc12)B(O)O)[C@H]1C[C@@H]2CC[C@H]1O2: 2.25

[1] O=C(Cc1ccccc1)N[C@@H](Cc1coc2ccccc12)B(O)O
[2] O=C(N[C@@H](Cc1coc2ccccc12)B(O)O)[C@H]1CCCO1
Which is greater in logP, the first item 1 or the second item 2 ? Write down the label of the entry you select.
1

* * *

Species on record: Homo sapiens
ASSAY PROTOCOL: Selectivity ratio of IC50 for inhibition of human 20S proteasome beta5 subunit to IC50 for inhibition of human 20S immunoproteasome beta-5i subunit
PROPERTY MEASURED: Ratio IC50

Known results for compounds:
Cc1cccc2c1OC[C@H]2C[C@H](NC(=O)Cc1ccccc1C#N)B(O)O: 3150
Cc1cccc2c1OC[C@H]2C[C@H](NC(=O)Cc1ccccc1)B(O)O: 2330
O=C(N[C@@H](Cc1coc2ccccc12)B(O)O)[C@H]1C[C@@H]2CC[C@H]1O2: 444
O=C(Cc1ccccc1)N[C@@H](Cc1coc2c(Cl)cccc12)B(O)O: 210
O=C(Cc1ccccc1)N[C@@H](Cc1coc2ccccc12)B(O)O: 419
O=C(N[C@@H](Cc1coc2ccccc12)B(O)O)[C@@H]1C[C@H]2CC[C@@H]1O2: 684

[A] CC(=O)N[C@@H](Cc1coc2ccccc12)B(O)O
[B] O=C(Cc1ncccn1)N[C@@H](Cc1coc2ccccc12)B(O)O
Which is greater in Ratio IC50, the first item A or the second item B ? Write down the label of the entry you select.
B

* * *

TARGET: Proteasome Macropain subunit MB1 (Homo sapiens, UniProt P28074)
Sequence (P28074 whole entry): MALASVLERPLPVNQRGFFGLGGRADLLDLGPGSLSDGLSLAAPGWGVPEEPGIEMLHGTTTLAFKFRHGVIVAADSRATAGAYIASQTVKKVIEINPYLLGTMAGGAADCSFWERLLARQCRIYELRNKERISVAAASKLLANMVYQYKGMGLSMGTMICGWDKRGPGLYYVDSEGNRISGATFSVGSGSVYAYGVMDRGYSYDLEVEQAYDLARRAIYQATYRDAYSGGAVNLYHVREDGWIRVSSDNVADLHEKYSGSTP
ASSAY PROTOCOL: Inhibition of 20S proteasome beta5 subunit in human A549 cells using Suc-LLVY-luciferin substrate preincubated for 2 hrs followed by substrate addition and measured after 30 mins by luminometric analysis
Type: cell-based
PROPERTY MEASURED: IC50 (µM)

Known results for compounds:
O=C(Cc1ccccc1)N[C@@H](Cc1c(Cl)oc2ccccc12)B(O)O: 16.5
O=C(Cc1ccccc1)N[C@@H](Cc1cc2ccccc2o1)B(O)O: 10.1

[a] O=C(Cc1ccccc1)N[C@@H](Cc1coc2c(F)cccc12)B(O)O
[b] O=C(Cc1cnccn1)N[C@@H](Cc1coc2ccccc12)B(O)O
[c] Cc1cccc2c1OC[C@H]2C[C@H](NC(=O)Cc1ccccc1)B(O)O
[d] N#Cc1ccccc1CC(=O)N[C@@H](Cc1coc2ccccc12)B(O)O
Could you please sort these 4 entries by IC50 from high to low? # answer = labels listed in requested order
c, d, a, b
(c: 14 µM, d: 2.22 µM, a: 0.785 µM, b: 0.328 µM)

* * *

Species: Homo sapiens
ASSAY PROTOCOL: Selectivity ratio of IC50 for inhibition of human 20S proteasome beta5 subunit to IC50 for inhibition of human 20S immunoproteasome beta-5i subunit
PROPERTY MEASURED: Ratio IC50

Cc1ccc(C[C@H](NC(=O)Cc2ccccc2)B(O)O)cc1: 69
COc1cccc2c(C[C@H](NC(=O)Cc3ccccc3)B(O)O)coc12: 63
